B1: PhoQ; a variant is named by its letters at X, in order, P23837 (parent)
chain: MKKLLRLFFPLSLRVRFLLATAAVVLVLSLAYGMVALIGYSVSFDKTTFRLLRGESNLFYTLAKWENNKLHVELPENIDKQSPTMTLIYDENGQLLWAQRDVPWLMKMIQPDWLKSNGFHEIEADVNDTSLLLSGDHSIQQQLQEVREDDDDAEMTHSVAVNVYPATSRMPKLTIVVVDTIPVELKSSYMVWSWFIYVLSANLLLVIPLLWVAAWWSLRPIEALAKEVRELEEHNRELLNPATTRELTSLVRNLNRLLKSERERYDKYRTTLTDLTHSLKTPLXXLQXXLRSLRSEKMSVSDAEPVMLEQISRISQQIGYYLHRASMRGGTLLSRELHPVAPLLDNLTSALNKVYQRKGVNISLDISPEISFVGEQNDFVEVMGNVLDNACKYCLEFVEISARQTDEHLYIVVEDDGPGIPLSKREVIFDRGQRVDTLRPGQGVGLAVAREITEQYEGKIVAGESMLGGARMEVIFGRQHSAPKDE

Variants of: B1
Assay: enrichment ratio after two sorts for PhoP signalling (ratio (wild type AVST 3.29)); higher = more functional
Conditions: with PhoP (E. coli)
The full ranking holds about 140,000 sequences; the median of “enrichment ratio after two sorts for PhoP signalling” is about 0, and the highest 2% start at about 11. The sample holds the highest values, similar sequences and a random draw of the others, so the mix is not that of the screen.
MEASURED_ATTRIBUTE: enrichment ratio

> print(dat)
    mutation.name  assay.result
 1           DIML        ≤ 0.25
 2           ANRY        ≤ 0.25
 3           MEVV          2.27
 4           PTNE        ≤ 0.25
 5           ACGR        ≤ 0.25
 6           NFDN        ≤ 0.25
 7           TSCG          7.32
 8           EIFI        ≤ 0.25
 9           KSCG          1.82
10           LTGY        ≤ 0.25
11           SSCS          9.51
12           EKVL        ≤ 0.25
13           TELA          16.8
14           TEYI          8.43
15           LTLL          3.06
16           MELD        ≤ 0.25
17           TEVV          12.9
18           THGY          13.8
19           TTWY            14
20           PLPI        ≤ 0.25
21           MTWY          21.6
22           TEET        ≤ 0.25
23           RPLR        ≤ 0.25
24           SSCV          18.4
25           YTWF        ≤ 0.25
26           TGGY          7.07
27           TVAS          14.3
28           MMGY        ≤ 0.25
29           MTGY          14.4
30           GTYD        ≤ 0.25
31           NILL         0.938
32           PKLP          0.31
33           QYPA        ≤ 0.25
34           DSES        ≤ 0.25
35           YTWY        ≤ 0.25
36           MFGY        ≤ 0.25
37           TELD          13.4
38           FVAS        ≤ 0.25
39           PYDA        ≤ 0.25
40           KCNC        ≤ 0.25
41           SSCG          12.6
42           ITKR        ≤ 0.25
43           MNLM          15.1
44           SSCE          3.26
45           SDCN          4.78
46           ADGY        ≤ 0.25
47           THTS          1.63
48           ACSF          13.3
49           MMWF        ≤ 0.25
50           RHTL        ≤ 0.25
51           DVLL        ≤ 0.25
52           ESFE        ≤ 0.25
53           THCI          7.06
54           MTGR        ≤ 0.25
55           TDGY          11.5
56           TVMT          12.2
57           NELD        ≤ 0.25
58           DFEY        ≤ 0.25
59           QCLL          2.35
60           EKIL        ≤ 0.25
61           NGNC        ≤ 0.25
62           ENFF        ≤ 0.25
63           SHNC         0.752
64           STGY          8.87
65           TEFT          5.71
66           GTLL          12.4
67           QTFL          1.72
68           ETEG        ≤ 0.25
69           NHGY        ≤ 0.25
70           EKES        ≤ 0.25
71           WHYL        ≤ 0.25
72           MCGY        ≤ 0.25
73           KSNC        ≤ 0.25
74           NKAS        ≤ 0.25
75           TGNC          61.8
76           RHPA        ≤ 0.25
77           TCNC          14.3
78           SLVV          1.38
79           SHAN        ≤ 0.25
80           NHAY        ≤ 0.25
81           SSCQ          13.4
82           TEAT            17
83           GETD        ≤ 0.25
84           STNC        ≤ 0.25
85           GIPM        ≤ 0.25
86           TENT          3.14
87           SLCV          7.13
88           TEWI          4.93
89           TLDG        ≤ 0.25
90           MTWF          11.8
91           DDAI        ≤ 0.25

FYI, the data here is from a collection of fitness landscapes (doi:10.1126/science.1257360).
